Hello, the source for this data is patent US11566007B2, in case you need it.

TARGET_SYSTEM: KRAS G12V (Homo sapiens (Human), UniProt P01116+P62937, G12V)
Sequence (P01116-2 other isoform, or with tags, fused parts or gaps G12V): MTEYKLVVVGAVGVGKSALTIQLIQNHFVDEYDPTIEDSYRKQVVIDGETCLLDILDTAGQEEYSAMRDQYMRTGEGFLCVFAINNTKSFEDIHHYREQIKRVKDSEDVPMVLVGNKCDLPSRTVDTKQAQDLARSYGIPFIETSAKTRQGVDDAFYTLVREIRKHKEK
Sequence (P62937 whole entry): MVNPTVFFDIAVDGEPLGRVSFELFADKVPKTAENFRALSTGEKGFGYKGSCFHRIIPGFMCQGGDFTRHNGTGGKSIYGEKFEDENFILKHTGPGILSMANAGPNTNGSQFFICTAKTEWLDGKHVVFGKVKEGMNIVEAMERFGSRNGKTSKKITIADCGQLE
TEST_NAME: Ras-Raf (BRAF RBD) disruption / FRET / MOA assay, KRAS G12V
Assay type: biochemical
SETUP_CONDITIONS: read-out: IC50* KRAS G12V FRET data
pIC50: −log10 of the molar value.
PROPERTY_NAME: pIC50

Task item: Using the record for CCn1c(-c2cccnc2[C@H](C)OC)c2c3cc(ccc31)-c1cccc(c1)C[C@H](NC(=O)[C@H](C(C)C)N1CC[C@]3(CCN(C(=O)C#C[C@@]4(N(C)C)CCOC4)C3)C1=O)C(=O)N1CCC[C@H](N1)C(=O)OCC(C)(C)C2 (atropisomer, axis not shown) , state its measured pIC50.
Reply: 5.00 to 6.00

Task item: Using the record for CC#CC(=O)N1C[C@H](C)[C@H](C(=O)N(C)[C@H](C(=O)N[C@H]2Cc3cccc(c3)-c3ccc4c(c3)c(c(-c3cccnc3[C@H](C)OC)n4CC)CC(C)(C)COC(=O)[C@@H]3CCCN(N3)C2=O)C2CCCC2)C1 (atropisomer, axis not shown) , state its measured pIC50.
Reply: 5.00 to 6.00

Task item: Using the record for CO[C@@H](C)c1ncccc1-c1c2c3cc(ccc3n1CC(F)(F)F)-c1csc(n1)C[C@H](NC(=O)CCOC1CN(C(=O)C#CC(C)(C)N3CCC3)C1)C(=O)N1CCC[C@H](N1)C(=O)OCC(C)(C)C2 (atropisomer, axis not shown) , state its measured pIC50.
Reply: 5.00 to 6.00

Task item: Using the record for C=CC(=O)N1CCC12CN(C(=O)N(C)[C@H](C(=O)N[C@H]1Cc3nc(cs3)-c3ccc4c(c3)c(c(-c3cccnc3[C@H](C)OC)n4CC)CC(C)(C)COC(=O)[C@@H]3CCCN(N3)C1=O)C(C)C)C2 (atropisomer, axis not shown) , state its measured pIC50.
Reply: 5.00 to 6.00

Task item: Using the record for C=CC(=O)Nc1cnc(C(=O)N(C)[C@H](C(=O)N[C@H]2Cc3cc(O)cc(c3)-c3ccc4c(c3)c(c(-c3cccnc3[C@H](C)OC)n4CC)CC(C)(C)COC(=O)[C@@H]3CCCN(N3)C2=O)C(C)C)s1 (atropisomer, axis not shown) , state its measured pIC50.
Reply: 5.00 to 6.00

Task item: Using the record for CO[C@@H](C)c1ncccc1-c1c2c3cc(ccc3n1CC(F)(F)F)-c1csc(n1)C[C@H](NC(=O)CCOC1CN(C(=O)C#CC(C)(C)N(C)C)C1)C(=O)N1CCC[C@H](N1)C(=O)OCC(C)(C)C2 (atropisomer, axis not shown) , state its measured pIC50.
Reply: 6.00 to 7.00

Task item: Using the record for C=CC(=O)N1CCC12CCN(C(=O)N(C)[C@H](C(=O)N[C@H]1Cc3nc(cs3)-c3ccc4c(c3)c(c(-c3cccnc3[C@H](C)OC)n4CC)CC(C)(C)COC(=O)[C@@H]3CCCN(N3)C1=O)C(C)C)CC2 (atropisomer, axis not shown) , state its measured pIC50.
Reply: 6.00 to 7.00

Task item: Using the record for C=CC(=O)N1CC(N(C)C(=O)N(C)[C@H](C(=O)N[C@H]2Cc3nc(cs3)-c3ccc4c(c3)c(c(-c3cccnc3[C@H](C)OC)n4CC)CC(C)(C)COC(=O)[C@@H]3CCCN(N3)C2=O)C(C)C)C1 (atropisomer, axis not shown) , state its measured pIC50.
Reply: 6.00 to 7.00

Task item: Using the record for C=CC(=O)N1CCO[C@H]2CN(C(=O)N(C)[C@H](C(=O)N[C@H]3Cc4nc(cs4)-c4ccc5c(c4)c(c(-c4cccnc4[C@H](C)OC)n5CC)CC(C)(C)COC(=O)[C@@H]4CCCN(N4)C3=O)C(C)C)C[C@H]21 (atropisomer, axis not shown) , state its measured pIC50.
Reply: 5.00 to 6.00

Task item: Using the record for CO[C@@H](C)c1ncccc1-c1c2c3cc(ccc3n1CC(F)(F)F)-c1cc(cc(C(F)F)c1)C[C@H](NC(=O)[C@@H](COC1CN(C(=O)C#CC(C)(C)N(C)C)C1)C(C)C)C(=O)N1CCC[C@H](N1)C(=O)OCC(C)(C)C2 (atropisomer, axis not shown) , state its measured pIC50.
Reply: < 5.00

Task item: Using the record for C=CC(=O)N(C)C1CCN(C(=O)N(C)[C@H](C(=O)N[C@H]2Cc3nc(cs3)-c3ccc4c(c3)c(c(-c3cccnc3[C@H](C)OC)n4CC)CC(C)(C)COC(=O)[C@@H]3CCCN(N3)C2=O)C(C)C)CC1 (atropisomer, axis not shown) , state its measured pIC50.
Reply: 7.00 to 8.00

Task item: Using the record for CCn1c(-c2cccnc2[C@H](C)OC)c2c3cc(ccc31)C1=CCCN(C1)C[C@H](NC(=O)[C@H](C(C)C)N(C)C(=O)C1(F)CCN(C(=O)C#CC(C)(C)N(C)C)CC1)C(=O)N1CCC[C@H](N1)C(=O)OCC(C)(C)C2 (atropisomer, axis not shown) , state its measured pIC50.
Reply: 6.00 to 7.00

Task item: Using the record for C=CC(=O)N1CCO[C@H]2CN(C(=O)N(C)[C@H](C(=O)N[C@H]3Cc4cccc(c4)-c4ccc5c(c4)c(c(-c4cccnc4[C@H](C)OC)n5CC)CC(C)(C)COC(=O)[C@@H]4CCCN(N4)C3=O)C(C)C)C[C@H]21 (atropisomer, axis not shown) , state its measured pIC50.
Reply: 5.00 to 6.00

Task item: Using the record for C=CC(=O)N1CC[C@]2(CCN([C@H](C(=O)N[C@H]3Cc4cccc(c4)-c4ccc5c(c4)c(c(-c4cccnc4[C@H](C)OC)n5CC)CC(C)(C)COC(=O)[C@@H]4CCCN(N4)C3=O)C(C)C)C2=O)C1 (atropisomer, axis not shown) , state its measured pIC50.
Reply: 5.00 to 6.00

Task item: Using the record for CCn1c(-c2cccnc2COC)c2c3cc(ccc31)-c1cc(O)cc(c1)C[C@H](NC(=O)[C@H](C(C)C)N(C)C(=O)c1ccc(NC(=O)/C=C/CN(C)C)cn1)C(=O)N1CCC[C@H](N1)C(=O)OCC(C)(C)C2 , state its measured pIC50.
Reply: 5.00 to 6.00

---

TARGET_SYSTEM: KRAS WT (Homo sapiens (Human), UniProt P01116+P62937)
Sequence (P01116-2 other isoform, or with tags, fused parts or gaps): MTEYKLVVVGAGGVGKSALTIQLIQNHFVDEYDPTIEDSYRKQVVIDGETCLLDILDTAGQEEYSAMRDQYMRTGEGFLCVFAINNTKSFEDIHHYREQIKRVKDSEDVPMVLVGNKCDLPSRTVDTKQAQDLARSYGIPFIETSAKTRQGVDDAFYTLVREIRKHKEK
Sequence (P62937 whole entry): as the sequence (P62937 whole entry) above
TEST_NAME: Ras-Raf (BRAF RBD) disruption / FRET / MOA assay, KRAS WT
Format: biochemical
SETUP_CONDITIONS: read-out: IC50* KRAS WT FRET data
Please provide measured IC50 for the entries that follow.

Task item: Using the record for C=C(F)C(=O)N1CC2(CCN(C(=O)N(C)[C@H](C(=O)N[C@H]3Cc4nc(cs4)-c4ccc5c(c4)c(c(-c4cccnc4[C@H](C)OC)n5CC)CC(C)(C)COC(=O)[C@@H]4CCCN(N4)C3=O)C(C)C)CC2)C1 (atropisomer, axis not shown) [Example A682] , state its measured IC50.
Reply: 100 to 1000 nM

Task item: Using the record for CCn1c(-c2cccnc2[C@H](C)OC)c2c3cc(ccc31)-c1cccc(c1)C[C@H](NC(=O)[C@H](C(C)C)N(C)C(=O)[C@H]1CCN(C(=O)C#CC3(N(C)C)CCOC3)C1)C(=O)N1CCC[C@H](N1)C(=O)OCC(C)(C)C2 (stereo partly shown) [Example A533] , state its measured IC50.
Reply: 1000 to 10000 nM

Task item: Using the record for C=CC(=O)N1CCO[C@@H]2CN(C(=O)N(C)[C@H](C(=O)N[C@H]3Cc4nc(cs4)-c4ccc5c(c4)c(c(-c4cccnc4[C@H](C)OC)n5CC)CC(C)(C)COC(=O)[C@@H]4CCCN(N4)C3=O)C(C)C)C[C@@H]21 (atropisomer, axis not shown) [Example A714] , state its measured IC50.
Reply: 100 to 1000 nM

Task item: Using the record for CCn1c(-c2cccnc2[C@H](C)OC)c2c3cc(ccc31)N1CCC[C@@H](C[C@H](NC(=O)[C@@H](COC3CN(C(=O)C#CC(C)(C)N(C)C)C3)C(C)C)C(=O)N3CCC[C@H](N3)C(=O)OCC(C)(C)C2)C1 (atropisomer, axis not shown) [Example A715] , state its measured IC50.
Reply: > 10000 nM

---

Test system: NCI-H358 cells (K-Ras G12C)
TEST_NAME: Potency assay: pERK in NCI-H358 cells
Format: cell-based, human
SETUP_CONDITIONS: Homo sapiens, NCI-H358; H358 KRAS G12C; read-out: pERK EC50
pEC50: −log10 of the molar value.
PROPERTY_NAME: pEC50

Task item: Using the record for C=CC(=O)N1CCC(C(=O)N(C)[C@H](C(=O)N[C@H]2Cc3cc(O)cc(c3)-c3ccc4c(c3)c(c(-c3cccnc3[C@H](C)OC)n4CC)CC(C)(C)COC(=O)[C@@H]3CCCN(N3)C2=O)C(C)C)CC1 (atropisomer, axis not shown) , state its measured pEC50.
Reply: > 5.30

Task item: Using the record for C=CC(=O)N(C)C1CN(C(=O)N(C)[C@H](C(=O)N[C@H]2Cc3nc(cs3)-c3ccc4c(c3)c(c(-c3cccnc3[C@H](C)OC)n4CC)CC(C)(C)COC(=O)[C@@H]3CCCN(N3)C2=O)C(C)C)C1 (atropisomer, axis not shown) , state its measured pEC50.
Reply: > 5.30
